The measured values listed here are drawn from paper PMC9879200.

system: AChE (IC50 in the denominator); assay: SH-SY5Y neuroblastoma cell toxicity (MTT assay); details: human, SH-SY5Y neuroblastoma cells
Readout type: selectivity ratio at 48 h

[
  {
    "Chemical structure": "C=CC(C(C)=O)=P(c1ccccc1)(c1ccccc1)c1ccccc1",
    "Reported": 75.3
  }
]
